# assay notes: yeast display, Sf9 membrane polyspecificity reagent, FACS + sequencing; frameworks hold sequencing errors
readout name: polyreactivity (PSR sort gate)

- biosequence: "QVQHVESGGGLVQAGGSLRLSCAASGFTFRVYAMGWYRQARGKEMELVAAISRSGGSTYYADSVKRRFTISRDNEKNTVYLQMNSLKPEDTAVYYCGGGWKRGRYDYWGQGTQVTVSS"
  assay result: "high polyreactivity"
- biosequence: "QVQLVESGGGLVQAGGSLRLSCAASGFIFRKYAMGWYRQAPGKERELVAAITASGGSTYYADSVKGRFTISRDNAKNTVYLQMNSLKPEDTAVYYCATDYHGAERWLKYDYWGQGTQVTVSS"
  assay result: "high polyreactivity"

###

# assay notes: yeast display, Sf9 membrane polyspecificity reagent, FACS + sequencing; frameworks hold sequencing errors

- biosequence: "QVQLVESGGGLVQAGGSLRLSCAASGSIFKSYAMGWYRQPPGKERELVAAISWSGTSTYYADSVKGRFTISRDNAKNTVYLLMNSLKPEDTAVYYCNAVSVSSKRSDYWGQGTQVTVSS"
  polyreactivity (PSR sort gate): "low polyreactivity"
- biosequence: "QVQLVESGGGLVQAGGSLRLSCAASGSTFADYTMGWYRQAPGKERELSTSYADSVKGRFTISRDNAKNTVYLQMNSLKPEDTAVYYCAAETFYDYGGYDYWGQGTQVTVSS"
  polyreactivity (PSR sort gate): "low polyreactivity"

###

# assay notes: yeast display, Sf9 membrane polyspecificity reagent, FACS + sequencing; frameworks hold sequencing errors

- biosequence: "QFQLVESGGGLVQAGGSLRLSCAASGSIFKYYTMGRYRQAHGKEMELVAYISSGGSTKYADSVKGRFTISRDNAKNTVYLQMNSLKPEDTAVYYCAKRYYYFYPDYDYWGQGTQVTVSS"
  polyreactivity (PSR sort gate): "high polyreactivity"
- biosequence: "QVQLVESGGGLVQAGGSLRLSCAASGRTFYLNVMGWYRQAPGKEREFVASISTTGGSTYYADSVKGRFTISRDNAKNTVYLQMNSLKPDDTAVYYCAASLRYWARNYWGQGTQVTVSS"
  polyreactivity (PSR sort gate): "high polyreactivity"
- biosequence: "QVQLVESGGGLVQAGGSLRLSCAASGSNFYGYTMGWYRQAPGKERELVAAISWSGGSTYYADSVKGRFTISRDNAKNTVYLQMNSLKPEDTAVYYCAARWGYSRRGYRGYDYWGQGTQVTVSS"
  polyreactivity (PSR sort gate): "high polyreactivity"
- biosequence: "QVQLVESGGGLVQAGGSLRLSCAASGRTFKAYAMGWYRQAPGKERELVAAITYSGGSTYYADSVKGRFTISRDNAKNTVYLQMNSLKPEDTAVYYCAASAQSRSRVKLYYWGQGTQVTVSS"
  polyreactivity (PSR sort gate): "high polyreactivity"
- biosequence: "QVQLVESGGGLVQAGGSLRLSCAASGSTFDENAMGWYRQAPGKERELVAVISDSGGSTYYADSVKGRFTISRDNAKNTVDLQMNSLKPEVTAVYYCAKDVPPEYPTSSYDYWGQGTQVTVSS"
  polyreactivity (PSR sort gate): "low polyreactivity"
- biosequence: "QVHLVESGGGLVQAGGSLRLSCAASGSTLFPYAMGWYRQAPGKERELVAAISSRGGRTYYADSVKGRFTISRDNAKNTVYLQMNSLKPEVTAVYYCAAGDDYWGQGTEVTVSS"
  polyreactivity (PSR sort gate): "high polyreactivity"
- biosequence: "QVQLVESGGGLVQAGGSLRLSCAASGRIFTNYAMGWSRQAPGKERELVAAITGVGSTNYADSVKGRFTISRDNEKNTVYLQMNSLKPEDTAVYYCNAEYDYVSYVYTGFAFDYWGQGTQVTVSS"
  polyreactivity (PSR sort gate): "low polyreactivity"
- biosequence: "QVQLVESGGGLVQAGGSLRLSCAASGFTFYGNAMGWYRQAPGKERELVAAISSTGGSTFYADSVKGRFTISRDNAKNTVYLQMNSLKPEDTAVYYCAVRRYTKFRSTRYYYWGQGTQVTVSS"
  polyreactivity (PSR sort gate): "high polyreactivity"
- biosequence: "QLQLVESAAGLFQAGVSHRLSCDASGSTLSQNSMGGYRQAPGKEREFVADISGSGDSTYYADSVKGRFTISRDNAKNTVYLQMNSLKAEDTAVYYCATPSPHVGLKWEYDYWGQGTQVTVSS"
  polyreactivity (PSR sort gate): "low polyreactivity"
- biosequence: "QVQLLESGGGLVQAGVSHRLSCASSGFIFTYYAMGWYRQAPGKESELVASISTYGGNTNYADSVKGRFTISRDNAKNTVYIQMNSLIPEDTAVYYCAARIGNQYHTGYPTAGRKYGYWGQGTQVSVSS"
  polyreactivity (PSR sort gate): "high polyreactivity"
- biosequence: "HVELVQSCGGLVQAGGSLRLSSAASGRIFSPYVMGWFRQAPGKVRQLVAASRNRGGSTYYAAAVKWRFTISRDNATNTVYIQMNSLKPEDTAVYYCNAPDVSRPLRGRYDYWGQGTQVTVSS"
  polyreactivity (PSR sort gate): "high polyreactivity"
